The measurements presented in this section are drawn from paper PMC2756588.

ASSAY_TARGET: T1, Sla1-3, P32790
T1 sequence (P32790 344-424, looked up): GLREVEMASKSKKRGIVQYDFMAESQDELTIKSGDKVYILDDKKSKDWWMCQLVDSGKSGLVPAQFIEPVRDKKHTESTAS
TEST_METHOD_NOTES: SPOT array
SETUP_CONDITIONS: median of control spots 5475
Label yes when SPOT intensity < 3; otherwise no.

Find out if reported SPOT intensity for VDFTLPPPPPPPGLD is less than 3
yes

Find out if reported SPOT intensity for NIKVLLNPKLGKPVK is less than 3
no

Find out if reported SPOT intensity for KDKSRPPRPPPKPLH is less than 3
yes

Find out if reported SPOT intensity for VQQDSLPKLPFRSWG is less than 3
yes

Find out if reported SPOT intensity for LRIKRKPVQTFFEFI is less than 3
no

Find out if reported SPOT intensity for QGYPRQPQRPQRYHP is less than 3
yes

Find out if reported SPOT intensity for RRRIAYPFYPFKKLG is less than 3
no

Find out if reported SPOT intensity for QLLNPNRRAPRRPLS is less than 3
no

Find out if reported SPOT intensity for NTMKKRPAPPSLPSL is less than 3
no

Find out if reported SPOT intensity for ITHRLRISIPGITGR is less than 3
yes

Find out if reported SPOT intensity for RPKRRAPPPVPKKPS is less than 3
no

Find out if reported SPOT intensity for MSPLGAPPPPPHKDH is less than 3
yes

Find out if reported SPOT intensity for NLDRSKISLPDFDDE is less than 3
yes

Find out if reported SPOT intensity for LLRRTIPKRPFYHVL is less than 3
no
